Items are presented alongside their recorded inhibition at 300 µM.
test system: Hepatitis B virus; assay: Antiviral activity against Hepatitis B virus infected in human HepG2.2.15 cells assessed as inhibition of HBsAg secretion at 300 uM after 6 days by ELISA; format: functional; details: HepG2 2.2.15, 144 h
Report only the number, with the unit % understood.

COc1ccc(/C=C/C(=O)O/N=C/c2ccco2)cc1OC 53.8
Nc1ccn([C@@H]2CS[C@H](CO)O2)c(=O)n1 43.6
COc1cc(/C=C/C(=O)O/N=C/c2ccco2)cc(OC)c1OC 50.1
O=C(/C=C/c1ccc2c(c1)OCO2)O/N=C/c1cccs1 87.5
COc1cc(/C=C/C(=O)O/N=C/c2ccccn2)cc(OC)c1OC 40.5

Now let's try a different one.
*Q* Which inhibition at 300 µM is listed for COc1ccc(/C=C/C(=O)O/N=C/c2cccs2)cc1OC ?
*A* 52.6
